target: UniProt Q9NR97; test: TLR8 inhibition reporter assay (HEK-Blue SEAP); details: HEK-Blue cells overexpressing human TLR8, R848 15.9 μM, 22 hour incubation
Sequence (Q9NR97 27-1041): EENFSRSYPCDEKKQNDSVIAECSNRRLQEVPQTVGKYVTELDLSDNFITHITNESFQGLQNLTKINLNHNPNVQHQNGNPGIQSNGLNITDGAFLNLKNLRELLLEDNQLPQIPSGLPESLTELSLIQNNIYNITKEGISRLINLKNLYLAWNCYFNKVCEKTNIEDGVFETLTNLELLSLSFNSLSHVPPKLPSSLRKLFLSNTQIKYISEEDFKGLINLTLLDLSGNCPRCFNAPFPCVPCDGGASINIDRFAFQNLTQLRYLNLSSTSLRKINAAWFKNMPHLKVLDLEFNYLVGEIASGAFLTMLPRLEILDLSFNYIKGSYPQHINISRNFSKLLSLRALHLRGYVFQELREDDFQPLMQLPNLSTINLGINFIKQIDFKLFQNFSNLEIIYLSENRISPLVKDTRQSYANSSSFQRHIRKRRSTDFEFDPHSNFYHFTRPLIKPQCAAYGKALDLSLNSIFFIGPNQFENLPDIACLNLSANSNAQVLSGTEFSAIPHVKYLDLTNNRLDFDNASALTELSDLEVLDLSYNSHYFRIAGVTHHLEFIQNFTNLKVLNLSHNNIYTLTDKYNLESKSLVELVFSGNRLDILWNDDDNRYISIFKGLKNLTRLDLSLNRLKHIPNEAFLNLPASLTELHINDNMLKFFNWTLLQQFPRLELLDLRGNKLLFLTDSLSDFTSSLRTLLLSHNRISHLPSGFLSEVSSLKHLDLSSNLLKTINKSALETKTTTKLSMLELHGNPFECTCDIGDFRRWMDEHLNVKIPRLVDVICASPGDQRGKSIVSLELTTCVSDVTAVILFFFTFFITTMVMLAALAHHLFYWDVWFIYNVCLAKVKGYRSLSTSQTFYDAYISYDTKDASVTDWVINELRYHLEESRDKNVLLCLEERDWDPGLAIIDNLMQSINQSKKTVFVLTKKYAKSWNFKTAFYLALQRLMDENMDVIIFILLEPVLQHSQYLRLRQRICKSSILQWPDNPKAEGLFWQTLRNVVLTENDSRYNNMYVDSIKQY
pIC50: −log10 of the molar value.
measurement kind: pIC50

compound="COc1cc(-c2cc3[nH]c(=O)n([C@@H]4CCCN(CC5CCOCC5)C4)c3cc2C(F)(F)F)cn2ncnc12 [Example 112]" study_system="UniProt Q9NR97" measurement_kind=pIC50 meas_value=7.69
compound="COc1cc(-c2cc3[nH]c(=O)n([C@@H]4CCCN(CCC(C)(C)C)C4)c3cc2C(C)C)cn2ncnc12 [Example 210]" study_system="UniProt Q9NR97" measurement_kind=pIC50 meas_value=8.48
compound="COc1cc(-c2cc3[nH]c(=O)n([C@H]4CC[C@@H](NC5CCCC5)CC4)c3cc2C)cn2ncnc12 [Example 65]" study_system="UniProt Q9NR97" measurement_kind=pIC50 meas_value=8.77
compound="COc1cc(-c2cc3[nH]c(=O)n([C@H]4CCCN(CC5CCOC5)C4)c3cc2C(C)C)cn2ncnc12 (some centres unmarked) [Example 126]" study_system="UniProt Q9NR97" measurement_kind=pIC50 meas_value=8.44
compound="CCc1cc2c(cc1-c1cc(OC)c3ncnn3c1)[nH]c(=O)n2[C@H]1CC[C@@H](NC2COC2)CC1 [Example 170]" study_system="UniProt Q9NR97" measurement_kind=pIC50 meas_value=8.90

a = Cc1cc2c(cc1-c1cc(C)c3ncnn3c1)[nH]c(=O)n2[C@@H]1CCCN(CC(=O)N(C)C)C1 [Example 95]
b = CCN1CCC[C@@H](n2c(=O)[nH]c3cc(-c4cc(OC)c5ncnn5c4)c(C)cc32)C1 [Example 52]
c = COc1c(C)c(-c2cc3[nH]c(=O)n(C4CCC(N5CCC(F)(F)CC5)CC4)c3cc2C(C)C)cn2ncnc12 (single isomer, unassigned) [Example 229]
d = COc1cc(-c2cc3[nH]c(=O)n([C@H]4CC[C@@H](NCC5CCCCC5)CC4)c3cc2C)cn2ncnc12 [Example 66]
Query: Sort (4 compounds) by pIC50: min first. Provide the ranking by listing each label in its place in the requested order.
Result: a, b, c, d
(a: 7.08, b: 7.59, c: 8.66, d: 9.18)

Just for reference, patent US12187723B2 is where these values come from.
